// provenance: patent US9856290B2

System: Human Dermal Fibroblasts (KMST-6)
Assay: ECM ELISA assay: elastin secretion by human dermal fibroblasts
Assay type: cell-based
Conditions: 5 μM, KMST-6, 48 hours, % compared to control set at 100%, normalized to total protein
The star is where a group is joined. Ac4‑β‑Gal = tetraacetyl-β-galactoside (peracetylated β-galactose), CC(=O)OC[C@H]1O[C@@H](*)[C@H](OC(C)=O)[C@@H](OC(C)=O)[C@H]1OC(C)=O; Ac3‑α‑Rha = triacetyl-α-rhamnoside (peracetylated α-rhamnose), CC(=O)O[C@@H]1[C@@H](OC(C)=O)[C@H](C)O[C@@H](*)[C@@H]1OC(C)=O; Palmitoyl = CCCCCCCCCCCCCCCC(=O)*
QUANTITY: Elastin Secretion at 48 hours (%)
All answers are understood in %, so give the number only.

[
  {
    "SUBSTANCE": "Pal-KT(Ac4-β-Gal)TKS-OH (Palmitoyl-KT(Ac4‑β‑Gal)TKS-OH; SMILES CCCCCCCCCCCCCCCC(=O)N[C@@H](CCCCN)C(=O)N[C@H](C(=O)N[C@H](C(=O)N[C@@H](CCCCN)C(=O)N[C@@H](CO)C(=O)O)[C@@H](C)O)[C@@H](C)O[C@@H]1O[C@H](COC(C)=O)[C@H](OC(C)=O)[C@H](OC(C)=O)[C@H]1OC(C)=O; listed as Homo sapiens) [GP004-1]",
    "UNITS": "%",
    "NUMERIC_READOUT": 215.3
  }
]

[ask] Entry Pal-KT(Ac3-α-Rha)TKS-OH (Palmitoyl-KT(Ac3‑α‑Rha)TKS-OH; SMILES CCCCCCCCCCCCCCCC(=O)N[C@@H](CCCCN)C(=O)N[C@H](C(=O)N[C@H](C(=O)N[C@@H](CCCCN)C(=O)N[C@@H](CO)C(=O)O)[C@@H](C)O)[C@@H](C)O[C@@H]1O[C@@H](C)[C@H](OC(C)=O)[C@@H](OC(C)=O)[C@H]1OC(C)=O; listed as Homo sapiens) [GP004-7] has what Elastin Secretion at 48 hours?
[reply] 241.0
